// reported pKd per item
molecular target: T1, human KDR-Fc fusion (R&D Systems #357-KD-050) (human, UniProt P35968 20-764); assay: Biacore, KDR-Fc on CM5 chip, unlabeled peptide
T1 construct: bought
T1 sequence (P35968 20-764): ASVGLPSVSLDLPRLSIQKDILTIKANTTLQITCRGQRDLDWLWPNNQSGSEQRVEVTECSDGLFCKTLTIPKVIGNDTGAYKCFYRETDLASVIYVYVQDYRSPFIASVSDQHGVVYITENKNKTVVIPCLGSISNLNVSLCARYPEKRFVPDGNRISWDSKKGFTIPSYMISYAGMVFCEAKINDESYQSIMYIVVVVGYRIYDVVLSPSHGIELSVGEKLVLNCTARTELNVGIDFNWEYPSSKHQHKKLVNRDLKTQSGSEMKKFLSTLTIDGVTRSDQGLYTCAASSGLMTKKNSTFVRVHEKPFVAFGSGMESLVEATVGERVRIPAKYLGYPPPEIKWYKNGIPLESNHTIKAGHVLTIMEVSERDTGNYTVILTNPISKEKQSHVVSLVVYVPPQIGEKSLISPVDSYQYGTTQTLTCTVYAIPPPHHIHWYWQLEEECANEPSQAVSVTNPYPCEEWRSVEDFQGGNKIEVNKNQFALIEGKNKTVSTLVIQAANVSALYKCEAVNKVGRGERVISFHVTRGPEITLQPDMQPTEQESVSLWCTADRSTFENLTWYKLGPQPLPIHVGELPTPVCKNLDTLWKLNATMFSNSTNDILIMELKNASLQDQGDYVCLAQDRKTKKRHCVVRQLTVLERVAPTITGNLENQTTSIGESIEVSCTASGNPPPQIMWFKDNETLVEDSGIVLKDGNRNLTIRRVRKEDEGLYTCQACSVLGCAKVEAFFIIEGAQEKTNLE
Bridge positions count the residues as written; N and C are the ends.
Formally, pKd is defined as -log10 of the concentration c, with c in mol/L.

*Q* Please report the measured pKd for Ac-GSDHHCYLHNGQWICYPFAPGGGK-NH2 (disulfide 6-15 (inferred); not fully specified) [SEQ ID NO:314]
*A* 6.82
